# method: viability profiling in MM1S myeloma cells – cell-based, resazurin fluorescence, basal, 24 h, PK04 Diversity Set, profiling panel (AID 1174);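 note: MM1S multiple myeloma cell line; test concentration not given here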
# measurement.context: higher = more signal, called active from +8 up or from −8 down

{"columns": ["molecule", "z-score"],
 "data": [
  ["Cc1ccc(C(C)CC(O)C2C=CC3C(=O)N(C)C(=O)C3N2Nc2ccccc2)o1 (configuration not stated)", -0.855],
  ["COC(=O)[C@@]1(Cc2ccc(OC)cc2)[C@H]2c3cc(C(=O)N(C)C)[nH]c3C[C@H]2CN1C(=O)c1ccccc1", -0.798],
  ["CC(C)[Si](C#CCCc1ccccc1)(O[C@H](c1ccccc1)c1cn(Cc2ccccc2)nn1)C(C)C", -0.016],
  ["CC(C)(C)OC(=O)CC[C@@]1(C(=O)NCCN2CCOCC2)N=C(c2ccc(OCCCO)cc2)O[C@@H]1c1ccccc1CN=[N+]=[N-]", -0.743],
  ["C=C(C)[C@@H]1CC=C(C(O)C2C=CC3C(=O)N(C)C(=O)C3N2Nc2ccc([N+](=O)[O-])cc2[N+](=O)[O-])CC1 (some centres not stated)", -1.28],
  ["C=CCC(OC(C)=O)[C@@H]1[C@@H](N(Cc2ccc(-c3cccc(C(F)(F)F)c3)o2)C(=O)Cc2ccc(F)cc2)c2cc(OCCCO)ccc2N1C(=O)Cc1ccc2ccccc2c1 (some centres not stated)", 0.647],
  ["Cc1ccc(S[C@]2(C(=O)NCCCN(C)C)CC(=O)N(Cc3ccccc3C(F)(F)F)[C@@H]2c2ccc(CO)cc2I)cc1", -3.16]
]}

---

# Tested on: Noggin (protein binding on small-molecule microarray)
# method: small molecules binding Noggin protein – biochemical, 635/667 nm fluorescence, primary screen (AID 1095);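 note: score merges 667 nm feature fluorescence with signal to noise over triplicate slides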
# measurement.context: 635 nm fluorescence, higher = more signal
True means recorded composite z-score is 0.8 or above; False means it is below 0.8.

{"columns": ["molecule", "target.of.assay", "class.assignment"],
 "data": [
  ["O=C1O[C@@H](c2ccccc2)[C@@H](c2ccccc2)N2[C@@H](c3ccc(OCCO)cc3)[C@]3(C(=O)Nc4ccc(C#CCCO)cc43)[C@@H](C(=O)O)[C@H]12", "Noggin (protein binding on small-molecule microarray)", "True"],
  ["CC(C)=C1C(=O)C(c2ccccc2)=C2CN3C(=O)N(CCc4ccccc4)C(=O)[C@]3(C)[C@H]21", "Noggin (protein binding on small-molecule microarray)", "False"],
  ["C[N+](C)(C)CCCC[C@@H]1NC(=O)[C@@H]2C[C@H](C(=O)NCc3ccc(F)cc3)[C@H](c3ccc(O)cc3)N2C1=O", "Noggin (protein binding on small-molecule microarray)", "False"],
  ["CC(=O)c1ccc(C(O)C2C=CC3C(=O)N(c4ccccc4)C(=O)C3N2Nc2ccc(C(C)C)cc2)cc1 (centres undefined)", "Noggin (protein binding on small-molecule microarray)", "False"],
  ["Cc1ccc(S[C@]2(C(=O)NCC(F)(F)F)CC(=O)N(Cc3ccccc3C(F)(F)F)[C@@H]2c2ccc(CO)cc2)cc1", "Noggin (protein binding on small-molecule microarray)", "False"],
  ["COC(=O)[C@@]1(Cc2ccc(F)cc2)[C@H]2c3cc(C(=O)N(C)C)n(CCc4ccc(O)c(O)c4)c3C[C@H]2CN1C(=O)c1ccccc1", "Noggin (protein binding on small-molecule microarray)", "False"],
  ["C=CCC(OC(C)=O)[C@@H]1[C@@H](N(Cc2ccc(-c3ccccc3)cc2)C(=O)c2cccc3ccccc23)c2cc(OCCCO)ccc2N1C(=O)Cc1ccc(OC)cc1 (some centres undefined)", "Noggin (protein binding on small-molecule microarray)", "False"],
  ["CC1CC/C=C\\[C@H]2OC34C=CCN(C(C)(C)C)C(=O)[C@H]3N(CCCO)C(=O)[C@@H]4C2C(=O)O1 (some centres undefined)", "Noggin (protein binding on small-molecule microarray)", "False"],
  ["CC(C)=CCCC(C)=CC(O)C1C=CC2C(=O)NC(=O)C2N1Nc1ccc(Cl)cc1Cl (centres undefined)", "Noggin (protein binding on small-molecule microarray)", "False"],
  ["COCCOC(=O)N1C(=O)[C@@]2(c3cc(C#Cc4ccc(OC)cc4)ccc31)[C@H](c1ccc(OCCO)cc1)N1[C@H](c3ccccc3)[C@H](c3ccccc3)OC(=O)[C@H]1[C@@H]2C(=O)NC[C@H](O)c1ccccc1", "Noggin (protein binding on small-molecule microarray)", "False"],
  ["Cc1ccc(S[C@]2(C(=O)NCCCN(C)C)CC(=O)N(C3Cc4ccccc4C3)[C@@H]2c2ccc(CO)cc2I)cc1", "Noggin (protein binding on small-molecule microarray)", "False"],
  ["CC(C)(C)N1CC=CC23O[C@@H]4/C=C\\CCCOC(=O)C4[C@H]2C(=O)N(CCCCCO)[C@@H]3C1=O (some centres undefined)", "Noggin (protein binding on small-molecule microarray)", "False"],
  ["CN1C(=O)C2C=CC(C(O)c3ccc(-c4ccccc4)s3)N(NC(=O)OC(C)(C)C)C2C1=O (centres undefined)", "Noggin (protein binding on small-molecule microarray)", "False"],
  ["CC(C)(C)N1CC=CC23O[C@@H]4C=CCOC(=O)[C@@H]4[C@H]2C(=O)N(CCO)[C@@H]3C1=O (some centres undefined)", "Noggin (protein binding on small-molecule microarray)", "False"],
  ["C=C(COC)C(=O)CC[C@@H](OC(C)=O)c1ccccc1OCCO", "Noggin (protein binding on small-molecule microarray)", "True"],
  ["COCCCNC(=O)[C@@]1(CCS(=O)(=O)c2ccccc2)COC(c2ccc(OCCCO)cc2)=N1", "Noggin (protein binding on small-molecule microarray)", "True"],
  ["CN(C)CCCC[C@@H]1NC(=O)[C@@H]2C[C@H](C(=O)NCCCCCCNC(=O)CS)[C@H](c3ccc(O)cc3)N2C1=O", "Noggin (protein binding on small-molecule microarray)", "True"],
  ["COc1ccc([Si](C)(C)[C@@H]2[C@@H](CC(=O)N(CCO)Cc3ccccc3)O[C@]3(C(=O)N(Cc4ccc(I)cc4)c4ccccc43)[C@H]2C)cc1", "Noggin (protein binding on small-molecule microarray)", "True"],
  ["COC(=O)[C@@]1(Cc2ccc(OC)cc2)[C@H]2c3cc(C(=O)N(C)C)[nH]c3C[C@H]2CN1C(=O)c1ccccc1", "Noggin (protein binding on small-molecule microarray)", "False"],
  ["C=CCN1Cc2ccccc2[C@H]2OC(c3ccc(OCCCO)cc3)=N[C@@]2(CCS(=O)(=O)c2ccccc2)C1=O", "Noggin (protein binding on small-molecule microarray)", "True"],
  ["CC(C)NC(=O)[C@@H]1c2ccccc2C(=O)N(Cc2ccc(OC(F)(F)F)cc2)[C@H]1c1ccc(CO)cc1", "Noggin (protein binding on small-molecule microarray)", "False"],
  ["COc1ccccc1CN1C(=O)c2ccccc2[C@](Cc2ccccc2I)(C(=O)NCC(C)C)[C@@H]1c1ccc(CO)cc1", "Noggin (protein binding on small-molecule microarray)", "False"]
]}

---

# Tested on: PRMT1 (protein arginine N-methyltransferase 1)
# method: small molecules binding arginine methyltransferase PRMT1 – biochemical, small-molecule microarray, 635 nm fluorescence, primary screen (AID 1088);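 note: binding of Prmt1 protein to compounds spotted on small-molecule microarray slides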
# measurement.context: higher = more signal
metric: composite z-score

{"columns": ["compound", "metric", "result.number"],
 "data": [
  ["CN(C)CCCCNC(=O)[C@H]1C[C@H]2C(=O)NCC(=O)N2[C@H]1c1ccc(O)cc1", "composite z-score", 0.784],
  ["COc1ccc([Si](C)(C)[C@@H]2[C@@H](CC(=O)N3CCC[C@H]3CO)O[C@]3(C(=O)N(Cc4ccc(N5CCOC5=O)cc4)c4ccccc43)[C@H]2C)cc1", "composite z-score", 1.45],
  ["CO[C@H]1O[C@H](CO)[C@@H](OC(=O)Nc2ccccc2-c2ccccc2)[C@H](OC(=O)Nc2ccccc2)[C@H]1OC(=O)Nc1ccccc1", "composite z-score", 1.54],
  ["C=CC[C@@]1(C(=O)N(C)C)N=C(c2ccc(OCCCO)cc2)O[C@@H]1c1ccccc1CN=[N+]=[N-]", "composite z-score", 1.55],
  ["O=C1O[C@H](Cc2ccccc2)[C@@H]2[C@H]3C=CCCC=C3CN2[C@H]1Cc1ccc(O)cc1", "composite z-score", -1.14],
  ["COC(=O)[C@@]1(Cc2ccccc2)N=C(c2ccc(OCCCO)cc2)O[C@H]1c1ccccc1CN=[N+]=[N-]", "composite z-score", 1.55],
  ["Cc1ccc(S[C@]2(C(=O)NCc3ccccc3)CC(=O)N(Cc3ccccc3C(F)(F)F)[C@@H]2c2ccc(CO)cc2)cc1", "composite z-score", 0.884],
  ["CN(C)CCCCNC(=O)[C@H]1C[C@H]2C(=O)N3CCC[C@H]3C(=O)N2[C@H]1c1cccc(OCCO)c1", "composite z-score", 1.1],
  ["C=C(/C(=C/C[C@@H](OC(C)=O)c1cccc(OCCO)c1)c1cnc2ccccc2c1)C(C)C", "composite z-score", 1.55],
  ["C=CCN1Cc2ccccc2[C@H]2OC(c3ccc(OCCCO)cc3)=N[C@@]2(CCS(=O)(=O)c2ccccc2)C1=O", "composite z-score", 1.55],
  ["CC(C)=C1C(=O)C(c2ccccc2)=C2CN3C(=O)N(CCc4ccccc4)C(=O)[C@]3(C)[C@H]21", "composite z-score", -0.638],
  ["C=C(COC)/C(=C/C[C@H](OC(C)=O)c1ccccc1OCCO)c1cc(C(=O)OC)ccc1OC", "composite z-score", 1.48],
  ["O=C1O[C@@H](c2ccccc2)[C@@H](c2ccccc2)N2[C@@H](c3ccc(OCCO)cc3)[C@]3(C(=O)Nc4ccc(C#CC5(O)CCCCCC5)cc43)[C@@H](C(=O)O)[C@H]12", "composite z-score", 1.35],
  ["CCOC(=O)C1=C[C@@H](C(C)(C)C)N(S(=O)(=O)c2ccc(C)cc2)[C@H]1c1ccc(C#N)cc1", "composite z-score", 1.56],
  ["[N-]=[N+]=Nc1ccccc1[C@H]1OC(c2ccc(OCCCO)cc2)=N[C@@]1(Cc1ccccc1)C(=O)NCC(O)CO (stereo partly drawn)", "composite z-score", 1.02],
  ["COc1ccc([Si](C)(C)[C@H]2[C@H](CCO)O[C@@]3(C(=O)N(Cc4cccc(N(C=O)c5ccccc5)c4)c4ccccc43)[C@@H]2C)cc1", "composite z-score", 1.56],
  ["CC(C)(C)N1CC=CC23O[C@@H]4C=CCOC(=O)[C@@H]4[C@H]2C(=O)N(CCO)[C@@H]3C1=O (stereo partly drawn)", "composite z-score", 0.717],
  ["C=C(C)[C@@H]1CC=C(C(O)C2C=CC3C(=O)N(C)C(=O)C3N2Nc2ccc([N+](=O)[O-])cc2[N+](=O)[O-])CC1 (stereo partly drawn)", "composite z-score", 1.32],
  ["COC(=O)[C@@]1(Cc2ccccc2)[C@H]2c3cc(C(=O)N(C)C)n(CCSC(=N)N)c3C[C@H]2CN1C(=O)c1ccccc1", "composite z-score", 0.265],
  ["CN(C)CCCC[C@@H]1NC(=O)[C@@H]2C[C@H](C(=O)NCCCCCCNC(=O)CS)[C@H](c3ccc(O)cc3)N2C1=O", "composite z-score", 1.33],
  ["C[C@@H]1ON(c2ccc(I)cc2)[C@H](c2cccc(NC(=O)OCC3c4ccccc4-c4ccccc43)c2)[C@H]1C(=O)N1C(=O)OC[C@H]1Cc1ccccc1", "composite z-score", 0.908],
  ["NCCCCCCNC(=O)[C@@H]1C[C@@H]2C(=O)N3CCC[C@H]3C(=O)N2[C@@H]1c1cccc(OCCO)c1", "composite z-score", 1.06],
  ["COCCOC(=O)N1C(=O)[C@@]2(c3cc(C#CCC(C(=O)OC)C(=O)OC)ccc31)[C@H](C(=O)Nc1nc3ccccc3s1)[C@H]1C(=O)O[C@H](c3ccccc3)[C@H](c3ccccc3)N1[C@@H]2c1ccc(OCCO)cc1", "composite z-score", 1.54],
  ["CC1CC/C=C\\[C@H]2OC34C=CCN(C(C)(C)C)C(=O)[C@H]3N(CCCO)C(=O)[C@@H]4C2C(=O)O1 (stereo partly drawn)", "composite z-score", -0.672],
  ["COCCOC(=O)N1C(=O)[C@@]2(c3cc(C#CCCO)ccc31)[C@H](C(N)=O)[C@H]1C(=O)O[C@H](c3ccccc3)[C@H](c3ccccc3)N1[C@@H]2c1ccccc1OCCO", "composite z-score", 1.54],
  ["O=C1C=C(c2ccccc2)C(=O)C2=C1CC([C@H]1Oc3ccccc3S(=O)(=O)N3CCC[C@@H]13)=CC2", "composite z-score", 0.345],
  ["COc1ccc(C(=O)Nc2ccc(CN3C(=O)[C@@]4(O[C@@H](CCn5cc(CCO)nn5)[C@H]([Si](C)(C)c5ccc(OC)cc5)[C@H]4C)c4ccccc43)cc2)cc1", "composite z-score", 1.34],
  ["Cc1ccc(S[C@]2(C(=O)NC3CC3)CC(=O)N(C(C)C)[C@@H]2c2ccc(CO)cc2I)cc1", "composite z-score", 1.27]
]}
